# Tested on: SNB-75 CNS
# EXPERIMENT_DESCRIPTION: NCI-60 one-dose screen, 48 h
# PROTOCOL_CONDITIONS: 10 µM unless noted
About 83,000 compounds went through this panel and 20% of them were active in at least one assay; those are over-represented in the sample as a whole. The source made the active and inactive calls. How the source made its calls: active means growth percent below 10; inactive means the rest.
Classes to choose from: YES for active, NO for inactive

CC1(C)CC[C@]2(C(N)=O)CC[C@]3(C)C(=CC[C@@H]4[C@@]5(C)C/C(=C/c6cccnc6)C(=O)C(C)(C)[C@@H]5CC[C@]43C)[C@@H]2C1 | YES
CCN(CC)c1ccc2cc(C(Nc3ccc(Br)c(C(F)(F)F)c3)c3nnnn3C(C)(C)C)c(=O)oc2c1 (configuration not stated) | NO
COC(=O)[C@@H](NC(=O)NC(=O)NC(=O)CI)C(C)C | NO
O=C(O)c1ccccc1C(F)(F)F | NO
CCN(CC)c1cc(N)c(Cc2c(N)cc(N(CC)CC)cc2Cl)c(Cl)c1 | YES
CC1Cc2c(Cl)ncnc2N(C)c2ccc(O)cc21 (configuration not stated) | NO
CCN=C1C=CC(=C(c2ccc(N(CC)CC)cc2)c2ccc(N(CC)CC)cc2)c2ccccc21 | YES
CC[C@@](C)(NC(=O)[C@H](C)NC(=O)CCNC(=O)C(C)(C)NC(=O)[C@H](C)NC(=O)[C@@H]1CCCN1C(=O)[C@@](C)(CC)NC(=O)[C@H](Cc1ccccc1)NC(=O)C1CCCN1C(=O)C(C)(C)NC(=O)C1CCCN1C(=O)C(C)(C)NC(C)=O)C(=O)NCCC(=O)N[C@@H](CC(C)C)C(=O)NC(C)(C)C(=O)NCCC(=O)N[C@@H](CC(C)C)C(=O)NC(C)(C)C(=O)NC(C)(C)C(=O)N[C@@H](CC(C)C)C(=O)NCCC(=O)NCO (some centres not stated) | YES

Given "Clc1ccc2nc(-c3ccc(-c4ccc(/C=N/NC5=NCCN5)cc4)s3)cn2c1" , state the outcome it received in this test.
NO

Would you kindly repeat that for "CCN(CC)c1ccc(/C=C/C=C2\NC(=O)NC2=O)cc1" ?
NO

Now the molecule "C=C(CN=[N+]=[N-])[C@@H]1CC[C@]2(C)[C@H](CC[C@@H]3[C@H]4[C@H]5OC(=O)[C@@]4(CCC5(C)C)CC[C@]32C)[C@@]1(C)CCC#N"
NO

Now the molecule "Cc1cc2c(C(C)C)c(O)c(O)c(C=NCc3ccoc3)c2c(O)c1-c1c(C)cc2c(C(C)C)c(O)c(O)c(C=NCc3ccco3)c2c1O"
NO

Then this molecule: CCCCC1COc2cccc3c2N1C=C/C3=C\C(=O)n1ccc2ccccc21 (configuration not stated)
NO

Then what about the molecule COc1ccccc1S(=O)Nc1ccccc1 (configuration not stated) ?
NO

Likewise for "C[N+](C)(C)c1ncnc2[n-]cnc12" ?
NO

Cool, now "CSc1nc2sc3cc(Cl)c(Cl)cc3n2c(=N)c1C#N"
NO

Also check "Cc1ccc(-c2cc(O)c(-c3ccc(C)cc3C)cc2O)c(C)c1"
NO

----------
# Tested on: OVCAR-8 ovarian
# EXPERIMENT_DESCRIPTION: NCI-60 one-dose screen, 48 h
# PROTOCOL_CONDITIONS: 10 µM unless noted
This is part of a sample that, as a whole, favours compounds with a hit. Of some 83,000 tested, about 20% had one in any assay. Activity calls are given as the source filed them. Rule for the calls: active = growth percent below 10; inactive = the rest.
Select the matching outcome among 1.0 for active, 0.0 for inactive

Please review the following examples before continuing.
O=C(NCCCCCCCNC(=O)OCc1ccc2c(Cl)cc(Cl)c(O)c2n1)OCc1ccc2c(Cl)cc(Cl)c(O)c2n1 | 1.0
O=[N+]([O-])c1cc([N+](=O)[O-])c(C(F)(F)F)cc1NN=C(c1ccc(O)cc1)c1ccc(O)cc1 | 1.0
Cn1cc(-c2nnc(-c3cn(C)c4ncccc34)o2)c2ccccc21 | 0.0
Cc1cc(NN=C(c2ccc(O)cc2)c2ccc(O)cc2)c([N+](=O)[O-])cc1[N+](=O)[O-] | 1.0
COc1ccc(OC)c([N+](=O)[O-])c1C(=O)CNC(C)=O | 0.0

Please indicate how the test categorized "Cc1cccc(/C=C2\N=C(c3ccccc3)N(c3ccc(S(N)(=O)=O)cc3)C2=O)c1" .
0.0

What do you have for "CCN(CC)CCCOc1ccc2c(c1)O/C(=C\c1cccc(OC)c1)C2=O" ?
0.0

Another molecule: "CC1(C)CC[C@]23CC[C@]4(C)[C@H](CC[C@@H]5[C@@]6(C)C/C(=C/c7ccncc7)C(=O)C(C)(C)[C@@H]6CC[C@]54C)[C@H]2[C@H]1OC3=O"
0.0

The reported numbers originate from PubChem BioAssay (NCI).
